assay: Accelerated stability study of blends: chemical compatibility of sweeteners with Compound 1B (assay potency); type: physicochemical
Peptide text beside a SMILES is read from it.
READOUT_NAME: Chemical stability (compatibility with Compound 1B)

COMPOUND | ENDPOINT_VALUE
COC(=O)[C@H](Cc1ccccc1)NC(=O)[C@@H](N)CC(=O)O [Aspartame] (H-Asp-Phe-OMe) | Compatible
OC[C@H]1O[C@H](O[C@]2(CCl)O[C@H](CCl)[C@@H](O)[C@@H]2O)[C@H](O)[C@@H](O)[C@H]1Cl [Sucralose] | Compatible
CC1=CC(=O)[N-]S(=O)(=O)O1.[K+] [Acesulfame-K] | Compatible

Data origin: patent US20220401450A1
